- System: uterine eosinophil peroxidase activity
- protocol: Uterine eosinophil peroxidase (EPO) assay, four day dosing
- Type: in vivo, Sprague Dawley rats
- measurement.context: OVX rats, oral, daily for 4 days, dose 10 mg/kg
Criterion: Uterine EPO (Vmax) meeting or surpassing 4 Vmax. Met: rule met. Not met: rule not met.

O=C(c1ccc(OCCNC(=O)C2CCCCC2)cc1)c1c(-c2ccc(O)cc2)sc2cc(O)ccc12 rule not met
O=C(NCCOc1ccc(C(=O)c2c(-c3ccc(O)cc3)sc3cc(O)ccc23)cc1)NC1CCCCC1 rule not met
O=C(c1ccc(OCCN2C(=O)CCC2=O)cc1)c1c(-c2ccc(O)cc2)sc2cc(O)ccc12 rule not met
O=C(NCCOc1ccc(C(=O)c2c(-c3ccc(O)cc3)sc3cc(O)ccc23)cc1)c1ccccc1 rule not met
O=C(c1ccc(OCCN2CCCC2=O)cc1)c1c(-c2ccc(O)cc2)sc2cc(O)ccc12 rule not met
COc1ccc(-c2sc3cc(OC)ccc3c2C(=O)c2ccc(OCC(=O)N3CCCCC3)cc2)cc1 rule met
CC(C)(C)C(=O)N1CCC(Oc2ccc(C(=O)c3c(-c4ccc(O)cc4)sc4cc(O)ccc34)cc2)CC1 rule met

====

Reported Uterine Weight (% inc. OVX) values follow for various molecules
- Tested on: ovariectomized (OVX) rats
- protocol: Four day dosing regimen, post-menopausal rat model: wet uterine weight
- Assay type: in vivo, Sprague Dawley rats
- measurement.context: OVX rats, oral, daily for 4 days, dose 0.1 mg/kg

molecule	units.label	Uterine Weight (% inc. OVX)
N#CCOc1ccc(C(=O)c2c(-c3ccc(O)cc3)sc3cc(O)ccc23)cc1 [Compound 14]	% inc. OVX	18.8
O=C(c1ccc(OCCNC(=O)C2CCCCC2)cc1)c1c(-c2ccc(O)cc2)sc2cc(O)ccc12 [Compound 21]	% inc. OVX	−5.5
CC(C)(C)C(=O)N1CCC(Oc2ccc(C(=O)c3c(-c4ccc(O)cc4)sc4cc(O)ccc34)cc2)CC1 [Compound 23]	% inc. OVX	−4.3
CCCCN(C)C(=O)COc1ccc(C(=O)c2c(-c3ccc(O)cc3)sc3cc(O)ccc23)cc1 [Compound 10]	% inc. OVX	1.5
O=C(c1ccc(OCC(=O)N2CCCCC2)cc1)c1c(-c2ccc(O)cc2)sc2cc(O)ccc12 [Compound 9]	% inc. OVX	−10.0
O=C(NCCOc1ccc(C(=O)c2c(-c3ccc(O)cc3)sc3cc(O)ccc23)cc1)c1ccccc1 [Compound 18]	% inc. OVX	16.1
O=C(c1ccc(OCCN2CCCCC2=O)cc1)c1c(-c2ccc(O)cc2)sc2cc(O)ccc12 [Compound 3]	% inc. OVX	13.3
CC(C#N)Oc1ccc(C(=O)c2c(-c3ccc(O)cc3)sc3cc(O)ccc23)cc1 (stereo not shown) [Compound 16]	% inc. OVX	0.7
CC(=O)NCCOc1ccc(C(=O)c2c(-c3ccc(O)cc3)sc3cc(O)ccc23)cc1 [Compound 26]	% inc. OVX	−17.5

====

- System: ovariectomized (OVX) rats
- protocol: Four day dosing regimen, post-menopausal rat model: wet uterine weight
- Assay type: in vivo, Sprague Dawley rats
- measurement.context: OVX rats, oral, daily for 4 days, dose 0.1 mg/kg
Reported Uterine Weight (% inc. OVX) values follow for various molecules
experimental.endpoint: Uterine Weight (% inc. OVX)

molecule	experimental.endpoint	endpoint.result
CN(C)C(=O)COc1ccc(C(=O)c2c(-c3ccc(O)cc3)sc3cc(O)ccc23)cc1	Uterine Weight (% inc. OVX)	−7.7
O=C(c1ccc(OCCN2C(=O)CCC2=O)cc1)c1c(-c2ccc(O)cc2)sc2cc(O)ccc12	Uterine Weight (% inc. OVX)	22.2
O=C(NCCOc1ccc(C(=O)c2c(-c3ccc(O)cc3)sc3cc(O)ccc23)cc1)NC1CCCCC1	Uterine Weight (% inc. OVX)	−29.9
CC(=O)N(CCOc1ccc(C(=O)c2c(-c3ccc(O)cc3)sc3cc(O)ccc23)cc1)C1CCCCC1	Uterine Weight (% inc. OVX)	7
COc1ccc(-c2sc3cc(OC)ccc3c2C(=O)c2ccc(OCC(=O)N3CCCCC3)cc2)cc1	Uterine Weight (% inc. OVX)	−0.5
O=C(c1ccc(OCCN2CCCC2=O)cc1)c1c(-c2ccc(O)cc2)sc2cc(O)ccc12	Uterine Weight (% inc. OVX)	−9
CC(C)(C)C(=O)N1CCCCC1COc1ccc(C(=O)c2c(-c3ccc(O)cc3)sc3cc(O)ccc23)cc1 (stereo not shown)	Uterine Weight (% inc. OVX)	1.9

====

- Test system: ovariectomized (OVX) rats
- protocol: Serum cholesterol analysis, four day dosing
- Assay type: in vivo, Sprague Dawley rats
- measurement.context: Rattus norvegicus, po, 96 h, OVX rats, oral, daily for 4 days, dose 1 mg/kg; read-out: Serum Cholesterol (% dec. OVX)

molecule	inhibition in vivo at 1 mg/kg (%)
CC(=O)NCCOc1ccc(C(=O)c2c(-c3ccc(O)cc3)sc3cc(O)ccc23)cc1 [Compound 26]	19
COc1ccc(-c2sc3cc(OC)ccc3c2C(=O)c2ccc(OCC(=O)N3CCCCC3)cc2)cc1 [Compound 7]	14.6
O=C(c1ccc(OCCNC(=O)C2CCCCC2)cc1)c1c(-c2ccc(O)cc2)sc2cc(O)ccc12 [Compound 21]	0.5
O=C(NCCOc1ccc(C(=O)c2c(-c3ccc(O)cc3)sc3cc(O)ccc23)cc1)c1ccccc1 [Compound 18]	-12.2
CC(=O)N(CCOc1ccc(C(=O)c2c(-c3ccc(O)cc3)sc3cc(O)ccc23)cc1)C1CCCCC1 [Compound 19]	20.1
CC(C#N)Oc1ccc(C(=O)c2c(-c3ccc(O)cc3)sc3cc(O)ccc23)cc1 (stereo not shown) [Compound 16]	28.8
CC(C)(C)C(=O)N1CCCCC1COc1ccc(C(=O)c2c(-c3ccc(O)cc3)sc3cc(O)ccc23)cc1 (stereo not shown) [Compound 22]	36.2

====

- Test system: uterine eosinophil peroxidase activity
- protocol: Uterine eosinophil peroxidase (EPO) assay, four day dosing
- Format: in vivo, Sprague Dawley rats
- measurement.context: OVX rats, oral, daily for 4 days, dose 0.1 mg/kg
// thresholds for Uterine EPO (Vmax) classes: low (below 3 Vmax), middle (3 Vmax to below 4 Vmax), high (4 Vmax or more)

compound	test.target	category
CC(=O)N(CCOc1ccc(C(=O)c2c(-c3ccc(O)cc3)sc3cc(O)ccc23)cc1)C1CCCCC1	uterine eosinophil peroxidase activity	high
O=C(c1ccc(OCCN2CCCC2=O)cc1)c1c(-c2ccc(O)cc2)sc2cc(O)ccc12	uterine eosinophil peroxidase activity	middle
O=C(NCCOc1ccc(C(=O)c2c(-c3ccc(O)cc3)sc3cc(O)ccc23)cc1)c1ccccc1	uterine eosinophil peroxidase activity	middle
O=C(c1ccc(OCC(=O)N2CCCCC2)cc1)c1c(-c2ccc(O)cc2)sc2cc(O)ccc12	uterine eosinophil peroxidase activity	low
CC(C#N)Oc1ccc(C(=O)c2c(-c3ccc(O)cc3)sc3cc(O)ccc23)cc1 (centres unmarked)	uterine eosinophil peroxidase activity	low
O=C(c1ccc(OCCN2C(=O)CCC2=O)cc1)c1c(-c2ccc(O)cc2)sc2cc(O)ccc12	uterine eosinophil peroxidase activity	low
CC(C)(C)C(=O)N1CCC(Oc2ccc(C(=O)c3c(-c4ccc(O)cc4)sc4cc(O)ccc34)cc2)CC1	uterine eosinophil peroxidase activity	low
COc1ccc(-c2sc3cc(OC)ccc3c2C(=O)c2ccc(OCC(=O)N3CCCCC3)cc2)cc1	uterine eosinophil peroxidase activity	high
CC(=O)NCCOc1ccc(C(=O)c2c(-c3ccc(O)cc3)sc3cc(O)ccc23)cc1	uterine eosinophil peroxidase activity	low
CN(C)C(=O)COc1ccc(C(=O)c2c(-c3ccc(O)cc3)sc3cc(O)ccc23)cc1	uterine eosinophil peroxidase activity	middle
CCCCN(C)C(=O)COc1ccc(C(=O)c2c(-c3ccc(O)cc3)sc3cc(O)ccc23)cc1	uterine eosinophil peroxidase activity	high
CC(C)(C)C(=O)N1CCCCC1COc1ccc(C(=O)c2c(-c3ccc(O)cc3)sc3cc(O)ccc23)cc1 (centres unmarked)	uterine eosinophil peroxidase activity	middle
O=C(c1ccc(OCCNC(=O)C2CCCCC2)cc1)c1c(-c2ccc(O)cc2)sc2cc(O)ccc12	uterine eosinophil peroxidase activity	middle
O=C(c1ccc(OCCN2CCCCC2=O)cc1)c1c(-c2ccc(O)cc2)sc2cc(O)ccc12	uterine eosinophil peroxidase activity	high
N#CCOc1ccc(C(=O)c2c(-c3ccc(O)cc3)sc3cc(O)ccc23)cc1	uterine eosinophil peroxidase activity	middle

====

- Test system: ovariectomized (OVX) rats
- protocol: Four day dosing regimen, post-menopausal rat model: wet uterine weight
- Format: in vivo, Sprague Dawley rats
- measurement.context: OVX rats, oral, daily for 4 days, dose 1 mg/kg
Cut-off 10 % inc. OVX on Uterine Weight (% inc. OVX): below means yes (1), at or above means no (0).

compound	category
N#CCOc1ccc(C(=O)c2c(-c3ccc(O)cc3)sc3cc(O)ccc23)cc1	no (0)
O=C(NCCOc1ccc(C(=O)c2c(-c3ccc(O)cc3)sc3cc(O)ccc23)cc1)NC1CCCCC1	yes (1)
CC(C)(C)C(=O)N1CCCCC1COc1ccc(C(=O)c2c(-c3ccc(O)cc3)sc3cc(O)ccc23)cc1 (centres unmarked)	no (0)
O=C(c1ccc(OCCN2CCCCC2=O)cc1)c1c(-c2ccc(O)cc2)sc2cc(O)ccc12	no (0)
COc1ccc(-c2sc3cc(OC)ccc3c2C(=O)c2ccc(OCC(=O)N3CCCCC3)cc2)cc1	yes (1)
CC(C)(C)C(=O)N1CCC(Oc2ccc(C(=O)c3c(-c4ccc(O)cc4)sc4cc(O)ccc34)cc2)CC1	yes (1)
